Test system: Mycobacterium tuberculosis Erdman
test.method.notes: Biofilm inhibition of Mycobacterium tuberculosis (ocular inspection)
Type: cell-based
condition.info: biofilm inhibition, 25 μM, average of three or more measurements (100/50/0% scoring), read-out: Average % Inhibition at 25 μM
value.type: inhibition at 25 µM (%)
# output: bare number, implied unit %

| record.smiles | inhibition at 25 µM, % |
| --- | --- |
| CN(C)c1c(Cc2cccc3ccccc23)cc(=O)n2c1SC[C@H]2C(=O)O | 100 |

[Q] Entry Cc1ccc(Cc2cc(=O)n3c(c2C2CC2)SC[C@H]3C(=O)O)c2ccccc12 has what inhibition at 25 µM?
[A] 100

[Q] What do you have for O=C(O)[C@@H]1CSc2c(C3CC3)c(Cc3ccc(F)c4ccccc34)cc(=O)n21 ?
[A] 100

[Q] Try this compound next: CC(C)c1c(Cc2cccc3ccccc23)cc(=O)n2c1SC[C@H]2C(=O)O
[A] 12

###

Test system: Mycobacterium tuberculosis Erdman
test.method.notes: Biofilm inhibition of Mycobacterium tuberculosis (ocular inspection)
Assay type: cell-based
condition.info: biofilm inhibition, 25 μM, average of three or more measurements (100/50/0% scoring), read-out: Average % Inhibition at 25 μM
Reported inhibition at 25 µM is given for each of the following compounds.
# number only, unit % dropped from output

Worked cases, answers included:
| compound | value.type | numeric.readout |
| --- | --- | --- |
| O=C(O)[C@@H]1CSc2c(C3CC3)c(Cc3cccc(Cl)c3Cl)cc(=O)n21 | inhibition at 25 µM | 100 |
| O=C(NNC(=O)C1CSc2c(C3CC3)c(Cc3cccc4ccccc34)cc(=O)n21)c1ccncc1 (centres unmarked) | inhibition at 25 µM | 100 |
| O=C(O)[C@@H]1CSc2c(C3CC3)c(COc3cccc4ccccc34)cc(=O)n21 | inhibition at 25 µM | 100 |
| CCOc1c(Cc2cccc3ccccc23)cc(=O)n2c1SC[C@H]2C(=O)O | inhibition at 25 µM | 50 |
| O=C(O)c1c(Cc2ccccc2)sc2c(C3CC3)c(Cc3cccc4ccccc34)cc(=O)n12 | inhibition at 25 µM | 0 |
| Cc1cc(=O)n2c(c1C1CC1)SC[C@H]2C(=O)O | inhibition at 25 µM | 12 |
| O=c1cc(Cc2cccc3ccccc23)c(C2CC2)c2n1[C@H](c1nnn[nH]1)CS2 | inhibition at 25 µM | 50 |

As a next step, examine the compound that follows.
[Q] Given the entry Cc1cccc(-c2sc3c(C4CC4)c(Cc4cccc5ccccc45)cc(=O)n3c2C(=O)O)c1 , report its measured inhibition at 25 µM.
[A] 88

###

# inhibition at 25 µM values compiled below
Tested on: Mycobacterium tuberculosis Erdman
test.method.notes: Biofilm inhibition of Mycobacterium tuberculosis (ocular inspection)
Type: cell-based
condition.info: biofilm inhibition, 25 μM, average of three or more measurements (100/50/0% scoring), read-out: Average % Inhibition at 25 μM
Kindly answer with a numeric value in %, unit omitted.

Here are 8 compounds together with their reported answers.
| compound | inhibition at 25 µM, % |
| --- | --- |
| O=C(O)[C@H]1CSc2c(C3CC3)c(Cc3cccc4ccccc34)cc(=O)n21 | 100 |
| Cc1cccc(Cc2cc(=O)n3c(c2C2CC2)SC[C@H]3C(=O)O)c1C | 87 |
| Cc1cccc(NCc2cc(=O)n3c(c2C2CC2)SC[C@H]3C(=O)O)c1C | 50 |
| NC(=O)[C@@H]1CSc2c(C3CC3)c(Cc3cccc4ccccc34)cc(=O)n21 | 100 |
| CCC(CO)NCCNC(CC)COC(=O)C1CSc2c(C3CC3)c(Cc3cccc4ccccc34)cc(=O)n21 (centres unmarked) | 100 |
| CC1(C)Sc2c(C3CC3)c(Cc3cccc4ccccc34)cc(=O)n2[C@@H]1C(=O)O | 62 |
| O=C(O)[C@@H]1CSc2c(C3CC3)c(Cc3ccc4ccccc4c3)cc(=O)n21 | 100 |
| O=C(O)C1C[S+]([O-])c2c(C3CC3)c(Cc3cccc4ccccc34)cc(=O)n21 (centres unmarked) | 75 |

# input for lookup
[Q] Would you mind telling me what inhibition at 25 µM value was observed for O=C(O)c1c(-c2ccccc2)sc2c(C3CC3)c(Cc3cccc4ccccc34)cc(=O)n12 ?
[A] 75
